Data origin: patent US8633245B2

System under test: recombinant human PAI-1 (Homo sapiens, UniProt P05121)
Construct: purchased Molecular Innovations, Inc
Sequence (P05121 24-402): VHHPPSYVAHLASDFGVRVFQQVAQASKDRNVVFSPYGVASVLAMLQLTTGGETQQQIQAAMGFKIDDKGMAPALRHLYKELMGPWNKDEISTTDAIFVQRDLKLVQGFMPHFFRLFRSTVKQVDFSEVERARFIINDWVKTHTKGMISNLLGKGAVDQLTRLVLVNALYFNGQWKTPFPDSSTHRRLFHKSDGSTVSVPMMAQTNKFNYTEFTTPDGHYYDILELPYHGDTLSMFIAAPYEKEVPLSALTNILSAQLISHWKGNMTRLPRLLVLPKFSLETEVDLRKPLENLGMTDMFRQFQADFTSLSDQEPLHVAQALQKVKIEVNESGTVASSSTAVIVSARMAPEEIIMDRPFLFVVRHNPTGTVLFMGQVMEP
Protocol text: Test Example 2: human PAI-1 inhibitory activity (tPA fluorogenic substrate, pH 7.4 HEPES buffer)
Type: biochemical
Measurement setup: human PAI-1; compound concentration 1 μM
Readout: Inhibition Rate of PAI-1 Activity (%)

INSERT INTO measurements (structure_as_smiles, system_under_test, result_number) VALUES
  ('CCCCc1ccc(-c2ccc(OCC(=O)O)c(Oc3ccc(C(C)(C)C)cc3)c2)cc1', 'recombinant human PAI-1 (Homo sapiens, UniProt P05121)', 76),
  ('CC(C)c1ccc(Oc2cc(-c3ccc(OC(F)(F)F)cc3)ccc2/C=C/C(=O)O)cc1', 'recombinant human PAI-1 (Homo sapiens, UniProt P05121)', 96);
